Item-by-item account of Avg. IC50
# TESTED_SYSTEM: Activated human plasma kallikrein (Enzyme Research Laboratories, HPKa 1303) (human, UniProt P03952 20-638)
# Sequence (P03952 20-638 limits assumed): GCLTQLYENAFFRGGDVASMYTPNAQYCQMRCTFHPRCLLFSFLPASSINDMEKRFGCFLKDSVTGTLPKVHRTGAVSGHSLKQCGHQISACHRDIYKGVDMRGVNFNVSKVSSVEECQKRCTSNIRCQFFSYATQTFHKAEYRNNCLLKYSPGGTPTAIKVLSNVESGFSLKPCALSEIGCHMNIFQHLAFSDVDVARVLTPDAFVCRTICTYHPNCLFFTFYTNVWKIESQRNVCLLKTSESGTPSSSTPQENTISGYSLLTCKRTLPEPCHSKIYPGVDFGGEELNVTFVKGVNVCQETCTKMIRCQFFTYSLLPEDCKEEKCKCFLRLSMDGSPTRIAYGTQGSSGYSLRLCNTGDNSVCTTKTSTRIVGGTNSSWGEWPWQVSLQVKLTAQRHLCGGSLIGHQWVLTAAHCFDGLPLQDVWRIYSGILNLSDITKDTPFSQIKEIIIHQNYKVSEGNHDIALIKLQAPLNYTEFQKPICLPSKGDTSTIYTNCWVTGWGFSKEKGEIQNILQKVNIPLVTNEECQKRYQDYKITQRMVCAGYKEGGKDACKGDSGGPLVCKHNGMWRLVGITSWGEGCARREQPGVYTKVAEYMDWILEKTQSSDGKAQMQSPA
# EXPERIMENT_SUMMARY: cell-based or functional assay
Numbered stars: 1 amine (or outer) side, 2 acyl side, 3 side chain; on linkers, the order of the positions; unused ones are H or OH. Bridge positions count the residues as written; N and C are the ends. Square brackets hold non-standard residues; d marks the D form. ABP = 2-amino-3-(5-bromothiophen-2-yl)propanoic acid, O=C([C@H](Cc1ccc(Br)s1)N[*:1])[*:2]; mXylyl = xylyl linker from dibromoxylene joining the two cysteines; des‑NH2 = missing amino-terminal amine group; dPhg = N[C@@H](C(=O)O)c1ccccc1; Chg = N[C@H](C(=O)O)C1CCCCC1; Phg = N[C@H](C(=O)O)c1ccccc1; Tle = CC(C)(C)[C@H](N)C(=O)O; 2‑APY = not defined here; Dab = NCC[C@H](N)C(=O)O; Aib = CC(C)(N)C(=O)O; Mpa = O=C(O)CCS
MEASUREMENT_TYPE: Avg. IC50

INSERT INTO assay_data (binder, result) VALUES
  ('{des‑NH2}-CP[dPhg]C[ABP][Tle]-NH2 (bridge 1-4; not fully specified (residue 1, bridges); printed as [mXylyl(1,4)](des-NH2)C-P-(D-Phg)-C-ABP-Tbg-NH2) [R2220]', '> 100 µM'),
  ('Ac-[Chg]CRVAC-NH2 (linker 2-6 via mXylyl) [R2159]', '> 20.1 µM'),
  ('Ac-[Chg]CRVPC-NH2 (linker 2-6 via mXylyl) [R2160]', '> 100 µM'),
  ('{des‑NH2}-CP[Chg]CRV-OH (linker 1-4 via mXylyl) [R2183]', '> 3.5 µM'),
  ('[Mpa][Aib]A[Chg]CR[Tle]PC-NH2 (linker 1-5-9 via 1,3,5‑Xylyl) [R2157]', '> 14.3 µM'),
  ('{des‑NH2}-CP[Phg]C[Dab][Tle]-NH2 (linker 1-4 via mXylyl; not fully specified (residue 1); printed as [mXylyl(1,4)](des-NH2)C-P-Phg-C-Dab-Tbg-NH2) [R2211]', '> 75 µM'),
  ('[Mpa]P[Chg]C[2‑APY][Tle]-NH2 (linker 1-4 via mXylyl; reading uncertain; also: printed as [mXylyl(1,4)](Des-NH2)C-P-Chg-C-(2-APY-Tbg-NH2)) [R2198]', '> 15 µM');
